SUBJECT_OF_TEST: SARS-CoV-2 M^pro (Severe acute respiratory syndrome coronavirus 2 (2019-nCoV) (SARS-CoV-2))
ASSAY_REMARKS: biochemical
CONDITION_DESCRIPTION: read-out: SARS-COV-2 main protease enzymatic inhibition IC50
QUANTITY_NAME: IC50 (µM)
Give just the number in µM; leave the unit off.

INSERT INTO assay_data (compound, quantity_name, measured_value) VALUES
  ('CC(C)(C)c1ccc(N(C(=O)c2ccco2)C(C(=O)NC2CCCC2)c2cccnc2)cc1 (stereo not shown)', 'IC50', 2.51);

Task: Which IC50 reading was recorded for the compound C[C@H](NC(=O)C(c1cccnc1)N(C(=O)c1cnco1)c1ccc(-c2ccccc2)cc1)c1ccccc1 (stereo partly shown) ?
Result: 4.99

Task: Same read-out for CC(C)(C)c1ccc(N(C(=O)c2ccco2)C(C(=O)Nc2ccc(F)cc2)c2cccnc2)cc1 (stereo not shown) ?
Result: 7.81

Task: Could you do the same for C[C@H](NC(=O)C(c1cccnc1)N(C(=O)c1ccco1)c1ccc(-c2ccco2)cc1)c1ccccc1 (stereo partly shown) , please?
Result: 2.54

Task: Continue with O=C(NC1CCCCC1)C(c1cccnc1)N(C(=O)c1c[nH]cn1)c1ccc(-c2ccccc2)cc1 (stereo not shown)
Result: 5.82

Task: Record: CC(C)(C)c1ccc(N(C(=O)c2ccco2)C(C(=O)NCn2nnc3ccccc32)c2cccnc2)cc1 (stereo not shown)
Result: 8.13

Task: Also, C[C@H](NC(=O)C(c1cccnc1)N(C(=O)c1ccco1)c1ccc(N2CCCCC2)cc1)c1ccccc1 (stereo partly shown) please.
Result: 5.46

Task: For C[C@H](NC(=O)C(c1cccnc1)N(C(=O)c1ccco1)c1ccc(-n2cccc2)cc1)c1ccccc1 (stereo partly shown) then?
Result: 0.94

Task: Please answer likewise for O=C(NC1CCCCC1)C(c1cccnc1)N(C(=O)c1ccco1)c1ccc(-c2ccccc2)cc1 (stereo not shown)
Result: 2.68

Task: What would you report for CC(C)NC(=O)C(c1cccnc1)N(C(=O)c1ccco1)c1ccc(C(C)(C)C)cc1 (stereo not shown) ?
Result: 5.37

Task: Next up: C[C@H](NC(=O)C(c1cccnc1)N(C(=O)c1ccco1)c1ccc(-c2ccccn2)cc1)c1ccccc1 (stereo partly shown)
Result: 1.81

Task: Do the same for O=C(NCC(c1ccccc1)c1ccccc1)C(c1cccnc1)N(C(=O)c1ccco1)c1ccc(-c2ccccc2)cc1 (stereo not shown) please
Result: 1.48

Source listed as patent US20240083885A1.
